# assay system: T1, cynomolgus monkey IL-33 expressed with a C-terminal hexahistidine tag (cynomolgus monkey)
# T1 construct: also called MfIL-33-6His; Mf-IL-33-6His
# T1 chain: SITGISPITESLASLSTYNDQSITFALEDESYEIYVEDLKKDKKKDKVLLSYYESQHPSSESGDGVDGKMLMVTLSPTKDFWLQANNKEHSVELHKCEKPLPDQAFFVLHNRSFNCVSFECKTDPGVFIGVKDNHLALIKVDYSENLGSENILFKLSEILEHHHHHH
# procedure text: SPR 37C pH7.4, mAb captured
parameter measured: Kd

binder	value measured
H4H9633P (antibody, human IgG4, V domains shown, Human IgG4 Fc (H4H)) VH: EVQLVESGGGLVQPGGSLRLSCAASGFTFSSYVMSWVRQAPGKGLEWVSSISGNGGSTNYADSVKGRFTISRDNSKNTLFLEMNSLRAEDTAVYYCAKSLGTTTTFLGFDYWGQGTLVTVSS VL: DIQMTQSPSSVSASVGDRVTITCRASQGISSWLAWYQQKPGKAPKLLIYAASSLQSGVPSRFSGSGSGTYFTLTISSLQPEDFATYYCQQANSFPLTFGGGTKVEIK	48.6 nM
H4H9665P (antibody, human IgG4, V domains shown, Human IgG4 Fc (H4H)) VH: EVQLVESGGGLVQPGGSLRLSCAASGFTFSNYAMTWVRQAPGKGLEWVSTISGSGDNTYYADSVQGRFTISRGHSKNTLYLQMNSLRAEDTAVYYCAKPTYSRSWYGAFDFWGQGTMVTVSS VL: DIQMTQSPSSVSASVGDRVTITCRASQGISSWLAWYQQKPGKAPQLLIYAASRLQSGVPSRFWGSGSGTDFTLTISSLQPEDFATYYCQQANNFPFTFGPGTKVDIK	1.91 nM
H4H9629P (antibody, human IgG4, V domains shown, Human IgG4 Fc (H4H)) VH: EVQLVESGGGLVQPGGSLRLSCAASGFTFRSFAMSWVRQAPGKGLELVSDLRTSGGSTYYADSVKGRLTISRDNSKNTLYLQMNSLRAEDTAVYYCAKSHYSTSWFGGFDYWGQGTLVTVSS VL: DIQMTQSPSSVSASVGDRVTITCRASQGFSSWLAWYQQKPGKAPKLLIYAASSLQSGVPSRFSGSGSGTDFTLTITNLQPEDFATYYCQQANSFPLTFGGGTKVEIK	32.4 nM
H4H9640P (antibody, human IgG4, V domains shown, Human IgG4 Fc (H4H)) VH: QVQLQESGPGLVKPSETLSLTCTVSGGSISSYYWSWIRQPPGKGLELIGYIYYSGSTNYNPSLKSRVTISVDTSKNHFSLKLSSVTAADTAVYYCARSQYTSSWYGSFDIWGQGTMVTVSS VL: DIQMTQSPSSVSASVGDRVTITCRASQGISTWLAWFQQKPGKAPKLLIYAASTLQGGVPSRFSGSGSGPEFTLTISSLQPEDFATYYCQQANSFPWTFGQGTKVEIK	5.38 nM
H4H9664P (antibody, human IgG4, V domains shown, Human IgG4 Fc (H4H)) VH: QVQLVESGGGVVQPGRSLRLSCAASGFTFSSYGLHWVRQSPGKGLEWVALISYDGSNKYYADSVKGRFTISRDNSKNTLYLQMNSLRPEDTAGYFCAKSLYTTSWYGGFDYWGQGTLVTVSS VL: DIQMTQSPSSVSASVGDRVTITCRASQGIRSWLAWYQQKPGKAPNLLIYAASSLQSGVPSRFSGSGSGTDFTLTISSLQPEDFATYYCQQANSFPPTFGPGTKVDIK	16.2 nM

Reference source: patent US20160362487A1
